# Experimental system: T1, cynomolgus EREG (Biacore analyte) (cynomolgus monkey, UniProt O14944 63-108 (human entry), limits assumed)
# T1 construct: also called cynomolgus monkey EREG; cEREG
# T1 sequence (O14944 other isoform, or with tags, fused parts or gaps limits assumed): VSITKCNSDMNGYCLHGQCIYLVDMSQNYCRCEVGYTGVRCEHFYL
# Protocol text: SPR (Biacore T100), antibody captured on Protein A, EREG as analyte; KD for monkey EREG over KD for human EREG
Respond with yes (1) for cEREG KD (nM)/hEREG KD (nM) values of 8 ratio and above, no (0) for values below.

Some solved entries appear below for comparison.
[[record]]
binder = "H124-G1d/LB-k (antibody, human IgG1, kappa, V domains shown) VH: QDQLVQSGAEVKKPGASVKVSCKASGFNIKDTRIQWVRQAPGQGLEWMGRIDPLRGNTKYREKFEGRVTITADTSTNTAYMELSSLRSEDTAVYYCVRSGTLFDFWGQGTLVTVSS VL: DIQMTQSPSSLSASVGDRVTITCKASQDIHKYIAWYQQKPGQAPRLLIQYTSTLQPGVPSRFSGSGSGTDYTFTISSLQPEDIATYYCLQYDNLRTFGGGTKVEIKR"
classification = "yes (1)"

[[record]]
binder = "H111-G1d/L47-k (antibody, human IgG1, kappa, V domains shown) VH: QDQLVQSGAEVKKPGASVKVSCKASGFNIKDTYIQWVRQAPGQGLEWMGRIDPLRGNTKYREKFEGRVTITADTSTNTAYMELSSLRSEDTAVYYCVRSGTLFDFWGQGTLVTVSS VL: DIQMTQSPSSLSASVGDRVTITCKASQDIHKYIAWYQQKPGQAPRLLIQYTSTLQPGVPSRFSGSGSGTDYTFTISSLQPEDIATYYCLQYDRLRTFGGGTKVEIKR"
classification = "yes (1)"

[[record]]
binder = "H116-G1d/LB-k (antibody, human IgG1, kappa, V domains shown) VH: QDQLVQSGAEVKKPGASVKVSCKASGFNIKDTYIQWVRQAPGQGLEWMGRIDPLRRNTKYREKFEGRVTITADTSTNTAYMELSSLRSEDTAVYYCVRSGTLFDFWGQGTLVTVSS VL: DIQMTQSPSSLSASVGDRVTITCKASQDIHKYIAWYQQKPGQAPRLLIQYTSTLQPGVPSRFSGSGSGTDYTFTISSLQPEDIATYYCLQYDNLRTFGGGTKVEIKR"
classification = "no (0)"

[[record]]
binder = "H132-G1d/LB-k (antibody, human IgG1, kappa, V domains shown) VH: QDQLVQSGAEVKKPGASVKVSCKASGFNIKDTYIQWVRQAPGQGLEWMGRIDPLRRNTKYREKFEGRVTITADTSTNTAYMELSSLRSEDTAVYYCVRSGRLFDFWGQGTLVTVSS VL: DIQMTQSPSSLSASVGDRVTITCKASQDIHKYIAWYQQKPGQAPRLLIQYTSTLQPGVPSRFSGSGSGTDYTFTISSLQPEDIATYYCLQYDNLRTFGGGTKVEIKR"
classification = "no (0)"

[[record]]
binder = "H121-G1d/LB-k (antibody, human IgG1, kappa, V domains shown) VH: QDQLVQSGAEVKKPGASVKVSCKASGFNIKDTYIQWVRQAPGQGLEWMGRIDPLRGNTKYRERFEGRVTITADTSTNTAYMELSSLRSEDTAVYYCVRSGTLFDFWGQGTLVTVSS VL: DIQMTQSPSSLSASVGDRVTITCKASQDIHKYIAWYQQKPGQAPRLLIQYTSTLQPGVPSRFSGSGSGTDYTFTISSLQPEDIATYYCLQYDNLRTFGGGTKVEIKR"
classification = "yes (1)"

[[record]]
binder = "H111-G1d/LB-k (antibody, human IgG1, kappa, V domains shown) VH: QDQLVQSGAEVKKPGASVKVSCKASGFNIKDTYIQWVRQAPGQGLEWMGRIDPLRGNTKYREKFEGRVTITADTSTNTAYMELSSLRSEDTAVYYCVRSGTLFDFWGQGTLVTVSS VL: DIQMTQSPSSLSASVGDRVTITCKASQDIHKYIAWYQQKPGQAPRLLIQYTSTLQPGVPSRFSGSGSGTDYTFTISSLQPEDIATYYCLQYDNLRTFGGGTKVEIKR"
classification = "yes (1)"

[[record]]
binder = "H112-G1d/LB-k (antibody, human IgG1, kappa, V domains shown) VH: QDQLVQSGAEVKKPGASVKVSCKASGFNIKDTYIQWVRQAPGQGLEWMGRRDPLRGNTKYREKFEGRVTITADTSTNTAYMELSSLRSEDTAVYYCVRSGTLFDFWGQGTLVTVSS VL: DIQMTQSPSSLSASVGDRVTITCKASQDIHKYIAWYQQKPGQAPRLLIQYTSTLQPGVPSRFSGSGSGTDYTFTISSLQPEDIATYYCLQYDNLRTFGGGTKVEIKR"
classification = "yes (1)"


Now look at this entry.
### Prompt Check if cEREG KD (nM)/hEREG KD (nM) >= 8 ratio (inclusive). Item: H119-G1d/LB-k (antibody, human IgG1, kappa, V domains shown) VH: QDQLVQSGAEVKKPGASVKVSCKASGFNIKDTYIQWVRQAPGQGLEWMGRIDPLRGNTRYREKFEGRVTITADTSTNTAYMELSSLRSEDTAVYYCVRSGTLFDFWGQGTLVTVSS VL: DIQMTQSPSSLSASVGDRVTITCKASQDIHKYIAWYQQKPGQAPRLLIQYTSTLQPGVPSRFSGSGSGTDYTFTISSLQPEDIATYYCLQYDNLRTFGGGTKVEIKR
### Response yes (1)
